Assay: yeast display, Sf9 membrane polyspecificity reagent, FACS + sequencing; frameworks hold sequencing errors
value kind: polyreactivity (PSR sort gate)

[[record]]
entry_sequence = "QVQLVESGGGLVQAGGSLRLSCAASGSIFEYNAMGWYRQAPGKERELVAAISRSGGSTYYADSVKGRFTISRDNAKNTVYLQMISLKPEDTAVYYCAARSPRYYRDFGYWGQGTQVTVSS"
meas_value = "high polyreactivity"

[[record]]
entry_sequence = "QVQLVESGGGLVQAGGSLRLSCAASGFIFYRYAMGWYRQAPGKERELVAAISSSGGSTYYADSVKGRFTISRDNAKNTVYLQMNSLKPEDTAVYYCAAEPSGKRSKFYYLGQGTQVTVSS"
meas_value = "high polyreactivity"

[[record]]
entry_sequence = "QVQLVESGGGLVQAGGSLRLSCAPSGSIFRKYAMGRYRQAPGKERELVAAIRSSGGSTYYADSVKGRFTISRDKAKNSVYFQLNSLKPEDTAVYYCAARYYRPSRYDYWGQGTQVTVSS"
meas_value = "high polyreactivity"


---

Experiment: yeast display, Sf9 membrane polyspecificity reagent, FACS + sequencing; frameworks hold sequencing errors
value kind: polyreactivity (PSR sort gate)

Here's what some known entries look like.
[[record]]
entry_sequence = "QVQLVESGGVLVQAGGSLRLSCAASGRTFGGNVMAWYRQAPGKERELVAAISYSGGSTHYADSVKGRFTNSRDNAKNTVYLQMNSLKPEDTAVYYCAKDGEVTGDYWGLGTQVTVSS"
meas_value = "low polyreactivity"

[[record]]
entry_sequence = "QVQLVESGGGLVQAGGSLRLSCAASGFTFPVYTMGWYRQAPGKERELVAAISGSGASTYYADSVKGRFTISRDNAKNTVYLQMNSLKPEDTAVYYCAAPLWRNYYFGWMDYWGQGTQVTVSS"
meas_value = "high polyreactivity"

[[record]]
entry_sequence = "QVQLVESGGGLVQAGGSLRLSCAASGITFASNTMGWYRQAPGKERELVAAITRGDNTYYADSVKGRFTISRDNAKNTVYLQMNSLKPEDTSVYYCATEGYQIQYEHDYWGQGTQVTVSS"
meas_value = "low polyreactivity"

[[record]]
entry_sequence = "QVQLVESGGGLVQAGGSLRLSCAASGSIFSTYAMGWYRQAPGKERELVATIRRGGSTYYADSVKGRFTISRDNAKNTVYLQMNSLKPEDTAVYYCAATVSSYPYYRYYSWGQGTQVNVSS"
meas_value = "high polyreactivity"

[[record]]
entry_sequence = "QVQLVESGGGLVQAGGSLRLSCAASGRTFWFYTMGWYRQAPGKERELVADIRRSGGSTYYADSVKGRFTISRDNAKNTVYLQMNSLKPEDTAVYYCASDPRRLAAGYTRYVYWGQGTQVTVSS"
meas_value = "high polyreactivity"


[in] Fill in: polyreactivity (PSR sort gate) of QVQLVESGGGLVQAGGSLRLSCAASGSTFYNYAMGWYRQAPGKERELVAAISSGGGITYYADSVKGRFTISRDNAKNTVYLQMNSLKPEDTAVYYCNARRKYLGYNYWGQGSQVTVSS is ___
[out] high polyreactivity

[in] Fill in: polyreactivity (PSR sort gate) of QVQLVESGGGLGQAGGSLRLSCAASGSIFQGYTMRWYRQARGKARELVAAITRSVTSTYYADSVKGRFTISRDNAKNTVYLQMNCLKPEDTAVYYCAATAYYARYWYDYWGQGTQVTVSS is ___
[out] high polyreactivity

[in] Fill in: polyreactivity (PSR sort gate) of QVQLVESGGGLVQAGGSLRLSCAASGYTFGPYAMGWYRQAPGKERELVAAITTRGGSTYYADSVKGRFTISRDNAKNTVYLQMNSLKPEDTAVYSCAAVVNSKSIQRVVRYYYWGQGTQVTVSS is ___
[out] high polyreactivity

---

Assay: yeast display, Sf9 membrane polyspecificity reagent, FACS + sequencing; frameworks hold sequencing errors
value kind: polyreactivity (PSR sort gate)

Here's what some known entries look like.
[[record]]
entry_sequence = "QVQLVESGGGLVQAGGSLRLSCAASGRTFYRYTMGWYRQAPGKERELVAGISWRGGTTYYADSVKGRFTISRDNAKNTVYLQMNSLKPEDTAVYYCAAKAGYRYGSLAYYKYDYWGQGTQVTVSS"
value_kind = "polyreactivity (PSR sort gate)"
meas_value = "high polyreactivity"

[[record]]
entry_sequence = "QVQLVESGGGLVQAGGSLRLSCADSGSIFLFNAMGWYRQAPGKERELVAAINRDDSTYYADSVKGRFTISRDNAKNTVYLQMNSLKPEDTAVYYCAAPVLHASYGYGYWGQGTQVTVSS"
value_kind = "polyreactivity (PSR sort gate)"
meas_value = "low polyreactivity"

[[record]]
entry_sequence = "QVQVVESGGGIVQAGGSHRLSCAAYGSIFLPYAMGWYRQAPGKDRELVAAITRGGDSTYADSVKGRFTISRDNAMYTVDLQMNSLKRDDTAVFYCAAGAGFESDYWGQGTQVTVAS"
value_kind = "polyreactivity (PSR sort gate)"
meas_value = "low polyreactivity"

[[record]]
entry_sequence = "QVQLVESGGGLVQAGGSLRLSCAASGRTFIYYAMGWSRQAPGKERELVAGISRNGGRTYYADSVKGRFTISRDNAKNTVYLQMNSLKPEDTAVYYCNAYPPSRHDYLGQGTQVTVSS"
value_kind = "polyreactivity (PSR sort gate)"
meas_value = "high polyreactivity"


Please turn your attention to the following entry.
[in] Fill in: polyreactivity (PSR sort gate) of QVQLVESGGGLVQAGGSLRLSCAASGSTFVYYAMGWYRQAPGKEREFVAAISYSGGNTYYADSVKGRFTISRDNAMNTVYLQMNSLKPEDTAVYYCAAYYYYFYHKVIWYELDYWGQGTQVTVSS is ___
[out] low polyreactivity

---

Experiment: yeast display, Sf9 membrane polyspecificity reagent, FACS + sequencing; frameworks hold sequencing errors
value kind: polyreactivity (PSR sort gate)

Here's what some known entries look like.
[[record]]
entry_sequence = "QFQLEESGGGLVQAGGSLRLSCAASGSTFWYNAMVWYIQATGKEMELVAAISSSGGSTYYADSVKGRFTISRDNAKYTVYLQMNSLKPEDSAVYYCNTRYVYTRGGTLKRDYLGQGTQVTVSS"
value_kind = "polyreactivity (PSR sort gate)"
meas_value = "high polyreactivity"

[[record]]
entry_sequence = "QVQLVESRGVLVQAGGSLRLSCAASGFTFYHYAMGWYRQAPGKDRELVAALDNGGSTYADSVKGRFTISRDNATNTVSLQRNSLKPEDTAVYYCAAVYLRYINGFYFWGQGTQVTVSS"
value_kind = "polyreactivity (PSR sort gate)"
meas_value = "low polyreactivity"

[[record]]
entry_sequence = "QVQLVESGGGLLQAGGSLRLSCSASGRIFPSYAMGWYRQAPGKERELVAAISSSGGRTYYADSVKGRFTISRDNAKNTVYLQLNSLKPEDTAVYYCAARWVQYGVRYDFWGQGTQVTVSS"
value_kind = "polyreactivity (PSR sort gate)"
meas_value = "high polyreactivity"

[[record]]
entry_sequence = "QVQLVESGGGLVQAGGSLRLSCAASGFTLSRYAMGWYRQAPGKERELVAAIRWSGGSTYYADSVKGRFTISRDNEKNTVYLQMNSLKPEDTAVYYCATRRSGYYSFYYWGQGTQVTGSS"
value_kind = "polyreactivity (PSR sort gate)"
meas_value = "high polyreactivity"

[[record]]
entry_sequence = "QVQLVESGGGLVQAGGSLRLSCAASGSIFYDNAMGWYRPAPGKERELVATIRGGGNTYYADSVKGRFTISRDNAKNTVYLQMNSLKPEDTAVYYCSKQSDFPGVPLVYGVYGYDYWGQGTQVTVSS"
value_kind = "polyreactivity (PSR sort gate)"
meas_value = "low polyreactivity"


[in] Fill in: polyreactivity (PSR sort gate) of QVQLEESGGGLVQAGGSLRLSCAASGRTFIKYAMGWYRQAPVNESELVAAITYSAGSTSYADSVKGRFTISRDNAKNTVYLQMNSRKPVDTAVYYCARRTRSYGYRSDYYYWGQGTQVTVSS is ___
[out] low polyreactivity

[in] Fill in: polyreactivity (PSR sort gate) of QVQLVESGGGLVQAGGSLRLSCAASGRIFGWYAMGWYRQAPGKERELVAAISNDGSTNYADSVKGRFTISRDNAKNTVYLQMNSLKPEDTAVYYCAARFYRSSYGWYGYWGQGTQVTVSS is ___
[out] high polyreactivity

[in] Fill in: polyreactivity (PSR sort gate) of QVQLVESGGGLVQAGGSLRLSCAASGSTFSVYAMGWYRQAPGKERELVATISWGGGITYYADSVKGRFTISRDNAKNTVYLQMNSLKPEDTAVYYCHSSKYGYWGQGTQVTVSS is ___
[out] high polyreactivity

[in] Fill in: polyreactivity (PSR sort gate) of QLQLVESGGGLVQAGGSLRLSCAASGITFQWYAMGWYRQAPGKERELVARISSGGSTNYADSVKGRFTISCDNAKYTVYLQMNSVKPEDTAVYYCNARYFWFDYWGQGTQVTVSS is ___
[out] high polyreactivity

[in] Fill in: polyreactivity (PSR sort gate) of QVQLVESGGGLVQAGVSLRLSCAASGSIFRYYAMGWYRQAPGKERELVAAITVGGSTYYADSVKGRFTISRDNAKNTVYLQMNSLKPEDTAVYYCAADGDKRTKGYDYWGQGTQVTVSS is ___
[out] high polyreactivity

[in] Fill in: polyreactivity (PSR sort gate) of QVQLVESGGGLVQSGCSLRLSCAASGRIFDRYAMGSYRQAPGKERELVAAISSSGGSTYYADSVKGRFTISRDHAKNTVYLLMNSLKPEDTAVYYCATGTSRYRHQRDYWGQGTQVTVSS is ___
[out] high polyreactivity

[in] Fill in: polyreactivity (PSR sort gate) of QVQLVESGGGLVQAGGSLRLSCAASGFIFAYYAMGWYIQAPGKERELVAAISLSGARTYYADSVKGRFTISRDTAKNTVYLQMNSLKPEDTAVYYCAATPWSYEYYYWGQGTQVTVSS is ___
[out] low polyreactivity

[in] Fill in: polyreactivity (PSR sort gate) of QVQLVESGGGLVQAGGSLRLSCGASGFIFVRYAMGWYRQAPGKERELVAAITKGGGRTYYADSVKGRFTISRDNAKNTVYLQMNSLKPEDTAVYYCATGGAHGRERDYGGQGTQVTVSS is ___
[out] high polyreactivity
